Where do these numbers come from? They come from BindingDB's records for doi:10.1021/acs.jmedchem.0c01316.

experiment: Inhibition of human RANKL-induced osteoclastogenesis in RANKL cultured mouse bone marrow cells assessed as reduction in RANKL/M-CSF-induced TRAP activity preincubated with RANKL for 1 hr followed by cell addition and subsequent media replenishment every 48 hrs for 4 days
Reported IC50 values are given for each entry in this list.
measurementName: IC50 (nM)

[
  {
    "structureSmiles": "CN(CCN(C)C(=O)c1cn(S(=O)(=O)c2cccc([N+](=O)[O-])c2)c2ccccc12)C(=O)c1coc2ccccc2c1=O",
    "experimentalValue": 5070
  },
  {
    "structureSmiles": "CN(CCN(C)S(=O)(=O)c1ccc(C#N)cc1)C(=O)c1cn(S(=O)(=O)c2cccc([N+](=O)[O-])c2)c2ccccc12",
    "experimentalValue": 2000
  },
  {
    "structureSmiles": "CN(CCN(C)S(=O)(=O)c1cccc([N+](=O)[O-])c1)C(=O)c1cn(S(=O)(=O)c2cccc([N+](=O)[O-])c2)c2ccccc12",
    "experimentalValue": 1900
  }
]
